# Tested on: HOP-92 NSCLC
# method: NCI tumour cell line growth inhibition, 48 h
Reported TGI values are given for each entry in this list.
State the answer as a number, implicitly in µM.

{"compound": "[B-][P+](CC[P+]1([B-])[C@@H](C)[C@@H](O)[C@H](O)[C@@H]1C)(c1ccccc1)c1ccccc1OC (stereo partly drawn)", "property.name": "TGI", "unit.of.measurement": "µM", "quantitative.result": 33}

Enquiry: Enter reported TGI observed with HOP-92 NSCLC for CCCCCCCc1n(Cc2ccc3ccccc3c2)c2ccccc2[n+]1Cc1ccc2ccccc2c1
Return: 0.67

Enquiry: Enter reported TGI observed with HOP-92 NSCLC for CC(Nc1ccc(Cl)c(Cl)c1)c1ccncc1 (stereo not drawn)
Return: 54.8

Enquiry: Enter reported TGI observed with HOP-92 NSCLC for O=C(CCN1CCCCC1)N1CCc2c([nH]c3ccccc23)C1c1cccnc1 (stereo not drawn)
Return: 66

Enquiry: Enter reported TGI observed with HOP-92 NSCLC for COc1ccc(/C=C2/SC(Nc3nc(-c4nc(NC5=NC(=O)/C(=C\c6ccc(OC)cc6)S5)sc4C)c(C)s3)=NC2=O)cc1
Return: 19.1

* * *

# System: SF-268 CNS
# method: NCI tumour cell line growth inhibition, 48 h
property.name: TGI

Record excerpt, results attached:
{"compound": "NC1CCC(N(CC(=O)O)CC(=O)O)C(N(CC(=O)O)CC(=O)O)C1 (centres undefined)", "result": "> 100 µM"}
{"compound": "CC(=O)N1N=C(c2ccc(Nc3nc(Nc4ccc(F)cc4)nc(Nc4ccc(F)cc4)n3)cc2)CC1c1ccc(N(C)C)cc1 (centres undefined)", "result": "43.3 µM"}
{"compound": "Cc1cn(Cc2ccc(C34CC5CC(CC(C5)C3)C4)c(O)c2)c(=O)[nH]c1=O", "result": "41.8 µM"}

Enquiry: # get_value(readout='TGI', item= COc1cc(C(=O)c2cnc(-c3cccc4[nH]ccc34)[nH]2)cc(OC)c1OC )
Return: > 100 µM

Enquiry: # get_value(readout='TGI', item= O=C(c1ccc(Cl)cc1)C(O)c1ccc(Cl)cc1 (centres undefined) )
Return: > 100 µM

Enquiry: # get_value(readout='TGI', item= CC(=O)c1ccc2c(c1)CC1(C2)Cc2cc3c(c(C(=O)O)c2C1)CCC3 (centres undefined) )
Return: > 100 µM

Enquiry: # get_value(readout='TGI', item= COC(=O)c1cc(NC(=O)Cc2c[nH]c3ccccc23)cn1C )
Return: > 100 µM

Enquiry: # get_value(readout='TGI', item= O=C1CCc2ccc(O)c(c2)Oc2ccc(cc2)C(Sc2ccccc2)CCO1 (centres undefined) )
Return: 42.4 µM

Enquiry: # get_value(readout='TGI', item= CCOc1ccccc1N=Nc1c(-c2ccccc2)nn(C(=O)CC(=O)Nc2cccc(C)c2)c1-c1ccccc1 )
Return: > 100 µM

* * *

Reported TGI values are given for each entry in this list.
# System: OVCAR-4 ovarian
# method: NCI tumour cell line growth inhibition, 48 h

{"molecule": "CC1=CC[C@@]2(C)CC[C@](O)(C(C)C)C2C(OC(=O)c2ccccc2)C1 (some centres undefined)", "TGI": "62.2 µM"}

Enquiry: # get_value(readout='TGI', item= COc1ccc2c(c1)CCCN1CCc3ccccc3C21 (centres undefined) )
Return: > 100 µM

Enquiry: # get_value(readout='TGI', item= N#Cc1cnc(Nc2cc(NC[C@H]3CNCCO3)c(C(F)(F)F)cn2)cn1 )
Return: 82.7 µM

Enquiry: # get_value(readout='TGI', item= O=C(CSCC(=O)N/N=C\c1cccc([N+](=O)[O-])c1)N/N=C\c1cccc([N+](=O)[O-])c1 )
Return: > 100 µM

Enquiry: # get_value(readout='TGI', item= COc1cc2c(c(OC)c1OC)-c1ccc(SC)c(=O)cc1[C@@H](O)CC2 )
Return: > 100 µM

Enquiry: # get_value(readout='TGI', item= COC(=O)C1C(=O)O[C@@H](c2cc(OC)c(OC)cc2OC)C1C(=O)OC (mixture of isomers) )
Return: > 100 µM

Enquiry: # get_value(readout='TGI', item= COc1cc(OC)cc(-c2cc(=O)c3cc4c(cc3[nH]2)OCO4)c1 )
Return: > 96.1 µM

* * *

# Test system: EKVX NSCLC
# method: NCI tumour cell line growth inhibition, 48 h
property.name: TGI

Record excerpt, results attached:
{"compound": "CCCCCCCCCCCCOC1C(CNC(=O)C2OC3OC(C)(C)OC3C2NC(=O)CN2CCN(c3ccc(OC)cc3)CC2)OC2OC(C)(C)OC21 (centres undefined)", "TGI": "17 µM"}
{"compound": "CCOP(=O)(OCC)C(C(=O)OC)C(=O)C(=O)Nc1cccc(O)c1 (centres undefined)", "TGI": "> 100 µM"}
{"compound": "COc1nc(N)c(NC(C)=O)c(=O)n1C", "TGI": "> 100 µM"}
{"compound": "CCCCCc1c(CCCC)c(=O)[nH]c2nc(NC(=O)CCCC)ccc12", "TGI": "> 100 µM"}
{"compound": "CCN(Cc1cccc(Cl)c1)c1ccc(CO)c(Cl)c1", "TGI": "27 µM"}
{"compound": "Clc1cccc(C2N3CCCCC3[C@@H]3c4[nH]c5ccccc5c4CCN23)c1 (some centres undefined)", "TGI": "> 100 µM"}
{"compound": "COc1ccc2c(c1)CCCN1CCc3ccccc3C21 (centres undefined)", "TGI": "> 100 µM"}
{"compound": "CC(C)CC(N)C(=O)Nc1ccc2ccccc2c1 (centres undefined)", "TGI": "> 100 µM"}
{"compound": "CCN(CC)CSc1nc2ccccc2[nH]1", "TGI": "> 100 µM"}
{"compound": "c1ccc(CNCCN(CCNCc2ccccn2)Cc2ccc3ccccc3c2)nc1", "TGI": "7.58 µM"}

Enquiry: # get_value(readout='TGI', item= CCCCCCCCCOCC(COP(=O)([O-])OCC[N+](C)(C)C)OC (centres undefined) )
Return: > 100 µM

Enquiry: # get_value(readout='TGI', item= O=C1c2ccccc2-c2c1c1ccccc1c(=O)n2CCCNCCn1c2c(c3ccccc3c1=O)C(=O)c1ccccc1-2 )
Return: 27.2 µM

Enquiry: # get_value(readout='TGI', item= Cc1cc(C)c(-c2noc(-c3ccc(Cl)cc3)c2C2=NCCCN2)c(C)c1 )
Return: > 100 µM

Enquiry: # get_value(readout='TGI', item= COC(=O)[C@@]12CC(C(C)C)[C@H]3CC(C(=O)C=C1OC)[C@H]32 (some centres undefined) )
Return: > 100 µM

* * *

# Tested on: MOLT-4 leukemia
# method: NCI tumour cell line growth inhibition, 48 h
Reported TGI values are given for each entry in this list.

{"sample.smiles": "CC(=O)[CH-]C(=O)c1ccccc1.CC(=O)[CH-]C(=O)c1ccccc1.O=S(=O)([O-])c1cc([O-])c2c([O-])cc(S(=O)(=O)[O-])cc2c1.[Na+].[Zr+4]", "study.target": "MOLT-4 leukemia", "TGI": "> 100 µM"}
{"sample.smiles": "Nc1ccccc1C(=O)CCC1C(=O)NC(=S)NC1=O", "study.target": "MOLT-4 leukemia", "TGI": "> 100 µM"}

Alright, here's another compound for you.
Enquiry: # get_value(readout='TGI', item= CCN(CC)CSc1nc2ccccc2[nH]1 )
Return: > 100 µM

* * *

# System: MCF7 breast
# method: NCI tumour cell line growth inhibition, 48 h
Reported TGI values are given for each entry in this list.

Enquiry: # get_value(readout='TGI', item= CSCSCC(CO)NC(=O)/C(C)=C\c1c(C)[nH]c(=O)[nH]c1=O (stereo not drawn) )
Return: > 250 µM

Enquiry: # get_value(readout='TGI', item= COc1cccc(C2c3cc4c(cc3OC(NNS(=O)(=O)c3ccc(C)cc3)C2C)OCO4)c1OC (stereo not drawn) )
Return: 79.5 µM

Enquiry: # get_value(readout='TGI', item= CCCc1cc(COC)c(C#N)c(=O)[nH]1 )
Return: > 100 µM

Enquiry: # get_value(readout='TGI', item= c1ccc(CNCCN(CCNCc2ccccn2)Cc2ccc3ccccc3c2)nc1 )
Return: 10.5 µM

Enquiry: # get_value(readout='TGI', item= O=C(CCN1CCCCC1)N1CCc2c([nH]c3ccccc23)C1c1cccnc1 (stereo not drawn) )
Return: > 100 µM

* * *

Reported TGI values are given for each entry in this list.
# Tested on: HCT-15 colon
# method: NCI tumour cell line growth inhibition, 48 h

Record excerpt, results attached:
{"molecule": "N#CC(C(=O)/C(=N\\NC(N)=O)C(C#N)c1ccccc1)c1ccccc1 (stereo not given)", "study.target": "HCT-15 colon", "TGI": "> 100 µM"}
{"molecule": "O=c1c(Cl)c(Cl)cnn1CCCl", "study.target": "HCT-15 colon", "TGI": "6.79 µM"}
{"molecule": "CC1C2C=C(O)C(=O)C(C2=O)C1c1ccccc1 (stereo not given)", "study.target": "HCT-15 colon", "TGI": "> 100 µM"}

Enquiry: # get_value(readout='TGI', item= CC(C)COc1nc2c(c(=O)n(C)c(=O)n2C)n1C )
Return: > 100 µM

Enquiry: # get_value(readout='TGI', item= CC(=O)NC(NCCN)(c1ccccc1)c1ccccc1 )
Return: > 100 µM
